- run description: Pharmacokinetic study in rats after oral administration (UHPLC-ESI-MS/MS of plasma)
- protocol conditions: male, Sprague Dawley, rat, in vivo, po, 100 mg/kg, t1/2, rat plasma, ART after gavage of pure ART (PU) 100 mg/kg, n = 6
measured property: half-life (h)
Give the value in h but do not write h after it.

Given C[C@@H]1CC[C@H]2[C@@H](C)C(=O)O[C@@H]3O[C@@]4(C)CC[C@@H]1[C@]32OO4 [ART, Artemisinin, reference compound] , state its recorded half-life.
1.1

---

Reported stability, mean ± SD (measured concentration) values follow for various compounds
- run description: Stability of the five compounds in SD rat plasma (QC samples, UHPLC-ESI-MS/MS)
- Type: in vitro ADME
- protocol conditions: SD rat plasma, nominal 5000 ng/mL, 3 freeze-thaw cycles, n=5
Kindly write the number and append the unit.

Look over these answered cases.
1) C=C(C(=O)O)[C@@H]1CC[C@@H](C)[C@@H]2CCC(C)=C[C@@H]21 [AA, Artemisinic acid]
4777 ± 82.6 ng/mL
2) CC1=C[C@H]2[C@@H](CC1)[C@H](C)CC[C@H]2[C@@H](C)C(=O)O [DHAA, Dihydroartemisinic acid]
4813 ± 108 ng/mL
3) C[C@@H]1CC[C@H]2[C@@H](C)C(=O)O[C@@H]3O[C@@]4(C)CC[C@@H]1[C@]32O4 [DEART, Deoxyartemisinin]
4765 ± 110 ng/mL

Moving on to the next compound.
Given C=C1CC[C@@H]2[C@H]3[C@@H](CC[C@H]2C)[C@@H](C)C(=O)O[C@H]13 [ARTI, Arteannuin I] , state its recorded stability, mean ± SD (measured concentration).
4532 ± 63.0 ng/mL

---

- run description: in vivo
- protocol conditions: male, Sprague Dawley, rat, po, 352 mg/kg, t1/2z
measured property: half-life (h)
Give the value in h but do not write h after it.

Given CC1=C[C@H]2[C@@H](CC1)[C@H](C)CC[C@H]2[C@@H](C)C(=O)O [DHAA, Dihydroartemisinic acid] , state its recorded half-life.
3.97

---

- Test system: Caco-2 cells
- run description: Cytotoxicity in Caco-2 cells, CCK-8 assay
- Type: cell-based, human
- protocol conditions: Caco-2, concentration 80 μmol/L, mean of 6
- Procedure: Caco-2 cells were cultured in 96-well plates for 48 h at a seeding density of 5.0 × 10^3 cells/well before the addition of drugs. […] The final concentration of DMSO was 0.05% (v/v). […] At the end of the incubation period, the plates were quantified by reading the absorbance at 450 nm on a micro-plate multi-detection instrument, SpectraMax iD3 with SoftMax® Pro (Molecular Devices Corporation Sunnyvale, CA, USA). […]
measured property: cck-8 mean (survival fraction)
Keep the answer to the number alone.

Look over these answered cases.
1) CC1=C[C@H]2[C@@H](CC1)[C@H](C)CC[C@H]2[C@@H](C)C(=O)O [DHAA, Dihydroartemisinic acid]
0.80
2) C[C@@H]1CC[C@H]2[C@@H](C)C(=O)O[C@@H]3O[C@@]4(C)CC[C@@H]1[C@]32OO4 [ART, Artemisinin, reference compound]
0.813
3) C=C(C(=O)O)[C@@H]1CC[C@@H](C)[C@@H]2CCC(C)=C[C@@H]21
0.80

Moving on to the next molecule.
Given C[C@@H]1CC[C@H]2[C@@H](C)C(=O)O[C@@H]3O[C@@]4(C)CC[C@@H]1[C@]32O4 , state its recorded cck-8 mean (survival fraction).
0.82
